test: qHTS assay to identify small molecule agonists of the sonic hedgehog signaling (Shh) pathway - cell viability counter screen (AID 1259366); details: NIH/3T3 Gli1-Luc viability, CellTiter-Fluor, 24 h; series mostly up to 92.4 µM; also: nearly all actives have a fitted effect of over 50% in size; also: potency is read from the fitted curve at half-maximal effect
Records with an inconclusive call do not appear. Activity calls are given as the source filed them. Calls follow the shape of the dose curve; as a rule, active = well fitted cell-killing curve with a large enough effect in the repeat runs; inconclusive = weak or mixed curves, or effect the other way; inactive = flat fitted curve, though single readings scatter.
measured property: Potency

# annotated cases, reported Potency shown
| compound | measured property | result |
| --- | --- | --- |
| O=C(O)CCc1nc(-c2ccccc2)c(-c2ccccc2)o1 | Potency | inactive |
| Oc1cc2c(cc1O)[C@H]1c3ccc(O)c(O)c3OC[C@@]1(O)C2 | Potency | 27.6 µM (active) |
| CCOC(=O)c1ccc(C#Cc2ccc3c(c2)C(C)(C)CCS3)nc1 | Potency | inactive |
| NC(=O)c1ccncc1 | Potency | inactive |
| CCCCCC#CC(=O)OC | Potency | inactive |
| Cc1ccc(CO)cc1 | Potency | inactive |

Each of the following entries comes with a recorded value; kindly state Potency for each.
1. OC[C@H]1O[C@@H](n2cnc3c(=S)nc[nH]c32)[C@H](O)[C@@H]1O
2. Cc1cc(C)c(N)cc1C
3. O=C1Cc2ccccc2N1c1c(Cl)cccc1Cl
4. O=C(O)c1ccc(OCCCOc2ccc(C(=O)O)cc2)cc1
5. CC(=O)[C@H]1[C@H](C#N)C[C@H]2[C@@H]3CC=C4C[C@@H](O)CC[C@]4(C)[C@H]3CC[C@@]21C
6. CCCCCCCC/C=C\CCCCCCCCO

-- reply
["inactive", "inactive", "inactive", "inactive", "inactive", "inactive"]

Each of the following entries comes with a recorded value; kindly state Potency for each.
1. Nc1cccc2c1CN(C1CCC(=O)NC1=O)C2=O (configuration not stated)
2. CC(=O)Nc1cc(S(=O)(=O)O)cc2cc(S(=O)(=O)O)c(N=Nc3ccccc3)c(O)c12
3. C=C(C)C(=O)OCCOCCOC(=O)C(=C)C
4. O=C1c2ccccc2C(=O)C1c1ccc(Br)cc1
5. O[C@@H]1CO[C@H]2[C@@H]1OC[C@@H]2O
6. O=C(O)CCC(=O)C(=O)O

-- reply
1. inactive
2. 27.3 µM (active)
3. inactive
4. inactive
5. inactive
6. inactive
